target: Pin1 (GST-Pin1) (Homo sapiens, UniProt Q13526); assay: Fluorescence polarization (FP) assay, binding to Pin1; conditions: competition with fluorescein-labeled peptide probe; 12 hours pre-incubation at 4° C.; Kenakin Ki equation; read-out: Ki, μM (FP Assay)
Non-standard residues stand in square brackets, D forms with d. Residues, ends and D or L forms follow the SMILES beside them. *: point of attachment. Phe(4-F) = N[C@@H](Cc1ccc(F)cc1)C(=O)O; 2Nal = N[C@@H](Cc1ccc2ccccc2c1)C(=O)O; NMeY = CN[C@@H](Cc1ccc(O)cc1)C(=O)O; NH(4-Me-benzyl) = Cc1ccc(CN*)cc1; Cit = NC(=O)NCCC[C@H](N)C(=O)O; aThr = C[C@H](O)[C@H](N)C(=O)O; Pip = O=C(O)[C@@H]1CCCCN1; Piperidide = C1CCN(*)CC1; Acryloyl = C=CC(=O)*; X6 = CC(Cl)C(=O)*; ClAc = O=C(CCl)*
REPORTED PROPERTY: Ki

# count of solved cases: 8
What value of Ki has been reported for the following compound? Cc1ccc(CNC(=O)[C@H](CCCNC(N)=O)NC(=O)[C@H](Cc2c[nH]c3ccccc23)NC(=O)[C@@H]2CCCCN2C(=O)[C@H](Cc2ccccc2)NC(=O)C(C)Cl)cc1 (stereo partly drawn) [Compound 11-34] (X6-F[Pip]W[Cit]-{NH(4-Me-benzyl)})
> 10 µM

What value of Ki has been reported for the following compound? NC(=O)[C@H](Cc1c[nH]cn1)NC(=O)[C@H](Cc1ccc2ccccc2c1)NC(=O)[C@@H]1CCCCN1C(=O)[C@H](CCC(=O)O)NC(=O)CCl [Compound 2b-7] (ClAc-E[Pip][2Nal]H-NH2)
4.02 µM

What value of Ki has been reported for the following compound? O=C(CCl)N[C@@H](Cc1ccccc1)C(=O)N1CCCC[C@H]1C(=O)N[C@@H](Cc1c[nH]c2ccccc12)C(=O)N[C@@H](Cc1ccccc1)C(=O)N1CCCCC1 [Compound 11-41] (ClAc-F[Pip]WF-Piperidide)
0.151 µM

What value of Ki has been reported for the following compound? COC(=O)CC[C@H](NC(=O)CCl)C(=O)N1CCCC[C@H]1C(=O)N[C@@H](Cc1c[nH]c2ccccc12)C(=O)N[C@@H](Cc1ccc(O)cc1)C(N)=O [Compound 2-22] (ClAc-E(OMe)[Pip]WY-NH2)
0.154 µM

What value of Ki has been reported for the following compound? C[C@H](O)[C@H](NC(=O)CCl)C(=O)N1CCCC[C@H]1C(=O)N[C@@H](Cc1c[nH]c2ccccc12)C(=O)N[C@@H](CCCNC(N)=O)C(N)=O [Compound 2-20] (ClAc-[aThr][Pip]W[Cit]-NH2)
0.122 µM

What value of Ki has been reported for the following compound? COC(=O)CC[C@H](NC(=O)CCl)C(=O)N1CCCC[C@H]1C(=O)N[C@@H](Cc1c[nH]c2ccccc12)C(=O)N(C)[C@@H](Cc1ccc(O)cc1)C(N)=O [Compound 2-28] (ClAc-E(OMe)[Pip]W[NMeY]-NH2)
> 10 µM

What value of Ki has been reported for the following compound? C=CC(=O)N[C@H](CCC(=O)O)C(=O)N1CCCC[C@H]1C(=O)N[C@@H](Cc1ccc2ccccc2c1)C(=O)N[C@@H](CCC(N)=O)C(N)=O [Compound 2b-2] (Acryloyl-[dE][Pip][2Nal]Q-NH2)
> 10 µM

What value of Ki has been reported for the following compound? NC(=O)CC[C@H](NC(=O)[C@H](Cc1ccc2ccccc2c1)NC(=O)[C@@H]1CCCCN1C(=O)[C@H](CC(=O)O)NC(=O)CCl)C(N)=O [Compound 2-2] (ClAc-D[Pip][2Nal]Q-NH2)
> 10 µM

Further cases:
What value of Ki has been reported for the following compound? COC(=O)CC[C@H](NC(C)=O)C(=O)N1CCCC[C@H]1C(=O)N[C@@H](Cc1c[nH]c2ccccc12)C(=O)N[C@@H](Cc1ccc(F)cc1)C(=O)NCc1ccc(C)cc1 [Compound 11-30] (Ac-E(OMe)[Pip]W[Phe(4-F)]-{NH(4-Me-benzyl)})
> 10 µM

----------
Items are presented alongside their recorded Ki.
biological target: Pin1 (GST-Pin1) (Homo sapiens, UniProt Q13526); assay: Fluorescence polarization (FP) assay, binding to Pin1; settings: competition with fluorescein-labeled peptide probe; 12 hours pre-incubation at 4° C.; Kenakin Ki equation; read-out: Ki, μM (FP Assay)
Non-standard residues stand in square brackets, D forms with d. Residues, ends and D or L forms follow the SMILES beside them. *: point of attachment. alloThr(PO3H2) = C[C@H](OP(=O)(O)O)[C@H](N)C(=O)O; Phe(4-F) = N[C@@H](Cc1ccc(F)cc1)C(=O)O; 2Nal = N[C@@H](Cc1ccc2ccccc2c1)C(=O)O; NMeF = CN[C@@H](Cc1ccccc1)C(=O)O; Pip = O=C(O)[C@@H]1CCCCN1; Piperidide = C1CCN(*)CC1; ClAc = O=C(CCl)*
Quick reminder: number only, in µM, skip the unit.

What value of Ki has been reported for the following compound? C[C@H](OP(=O)(O)O)[C@H](NC(=O)CCl)C(=O)N1CCCC[C@H]1C(=O)N[C@@H](Cc1ccc2ccccc2c1)C(=O)N[C@@H](CCC(N)=O)C(N)=O [Compound 2-4] (ClAc-[alloThr(PO3H2)][Pip][2Nal]Q-NH2)
1.24

Now for another entry.
What value of Ki has been reported for the following compound? CN(C(=O)CCl)[C@@H](Cc1ccccc1)C(=O)N1CCCC[C@H]1C(=O)N[C@@H](Cc1c[nH]c2ccccc12)C(=O)N[C@@H](Cc1ccc(F)cc1)C(=O)N1CCCCC1 [Compound 11-43] (ClAc-[NMeF][Pip]W[Phe(4-F)]-Piperidide)
0.172

----------
Target: Pin1 (Homo sapiens, UniProt Q13526)
Sequence (Q13526 whole entry): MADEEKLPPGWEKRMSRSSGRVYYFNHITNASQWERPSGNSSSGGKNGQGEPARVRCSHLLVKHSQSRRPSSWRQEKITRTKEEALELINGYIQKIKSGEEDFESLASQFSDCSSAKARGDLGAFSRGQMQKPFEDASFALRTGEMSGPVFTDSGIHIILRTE
Test: Cellular target engagement, live cell biotin competition assay in TNBC MDA-MB-231 cells
Assay type: cell-based
Design: endogenous in cells; host or cells: MDA-MB-231
Settings: TNBC MDA-MB-231 cells, 5 hours treatment; concentration under E7
Procedure: TNBC MDA-MB-231 cells were plated in 10 cm plates with 2.5 million cells per plate in 6 mL of media. The day after plating, cells were treated with the indicated concentrations of compound 18 for 5 hours. The cells were washed 2× with 0.9% NaCl (1 mL per 10 cm plate), and collected by scraping with a cell scraper. […]
Non-standard residues stand in square brackets, D forms with d. Residues, ends and D or L forms follow the SMILES beside them. *: point of attachment. 2Nal = N[C@@H](Cc1ccc2ccccc2c1)C(=O)O; Cit = NC(=O)NCCC[C@H](N)C(=O)O; Pip = O=C(O)[C@@H]1CCCCN1; ClAc = O=C(CCl)*; X1 = O=C(C1CO1)*
REPORTED PROPERTY: Cellular Target Engagement?

# returns recorded Cellular Target Engagement? (system: Pin1 (Homo sapiens, UniProt Q13526)) for COC(=O)CC[C@H](NC(=O)CCl)C(=O)N1CCCC[C@H]1C(=O)N[C@@H](Cc1c[nH]c2ccccc12)C(=O)N[C@@H](Cc1ccc(O)cc1)C(=O)NCc1ccc(C)cc1
No

# returns recorded Cellular Target Engagement? (system: Pin1 (Homo sapiens, UniProt Q13526)) for COC(=O)CC[C@H](NC(=O)CCl)C(=O)N1CCCC[C@H]1C(=O)N[C@@H](Cc1ccc2ccccc2c1)C(=O)N[C@@H](CCCNC(N)=O)C(N)=O [Compound 2-11] (ClAc-E(OMe)[Pip][2Nal][Cit]-NH2)
No

# returns recorded Cellular Target Engagement? (system: Pin1 (Homo sapiens, UniProt Q13526)) for NC(=O)NCCC[C@H](NC(=O)[C@H](Cc1ccc2ccccc2c1)NC(=O)[C@@H]1CCCCN1C(=O)[C@H](CCC(=O)O)NC(=O)C1CO1)C(N)=O (stereo partly drawn) [Compound 3b-1] (X1-E[Pip][2Nal][Cit]-NH2)
No

----------
biological target: Pin1 (GST-Pin1) (Homo sapiens, UniProt Q13526); assay: Fluorescence polarization (FP) assay, binding to Pin1; conditions: Ki, μM (FP Assay), competition with fluorescein-labeled peptide probe; 12 hours pre-incubation at 4° C.; Kenakin Ki equation
Non-standard residues stand in square brackets, D forms with d. Residues, ends and D or L forms follow the SMILES beside them. *: point of attachment. Phe(4-F) = N[C@@H](Cc1ccc(F)cc1)C(=O)O; Bta = N[C@@H](Cc1csc2ccccc12)C(=O)O; NH(4-Me-benzyl) = Cc1ccc(CN*)cc1; 3Thi = N[C@@H](Cc1ccsc1)C(=O)O; Cit = NC(=O)NCCC[C@H](N)C(=O)O; Pip = O=C(O)[C@@H]1CCCCN1; X4 = CN(c1ccccc1)*; ClAc = O=C(CCl)*
Items are presented alongside their recorded Ki.
Quick reminder: number only, in µM, skip the unit.

# count of solved cases: 4
What value of Ki has been reported for the following compound? COC(=O)CC[C@H](NC(=O)CCl)C(=O)N1CCCC[C@H]1C(=O)N[C@@H](Cc1c[nH]c2ccccc12)C(=O)N[C@@H](Cc1ccc(F)cc1)C(=O)NCc1ccc(C)cc1 [Compound 11-3] (ClAc-E(OMe)[Pip]W[Phe(4-F)]-{NH(4-Me-benzyl)})
0.19

What value of Ki has been reported for the following compound? COC(=O)CC[C@H](NC(=O)CCl)C(=O)N1CCCC[C@H]1C(=O)N[C@@H](Cc1csc2ccccc12)C(=O)N[C@@H](CCCNC(N)=O)C(=O)NCc1ccc(C)cc1 [Compound 11-21] (ClAc-E(OMe)[Pip][Bta][Cit]-{NH(4-Me-benzyl)})
0.015

What value of Ki has been reported for the following compound? COC(=O)CC[C@H](NC(=O)CCl)C(=O)N1CCCC[C@H]1C(=O)N[C@@H](Cc1c[nH]c2ccccc12)C(=O)N[C@@H](Cc1ccsc1)C(=O)NCc1ccc(C)cc1 [Compound 11-29] (ClAc-E(OMe)[Pip]W[3Thi]-{NH(4-Me-benzyl)})
1.01

What value of Ki has been reported for the following compound? COC(=O)CC[C@H](NC(=O)CCl)C(=O)N1CCCC[C@H]1C(=O)N[C@@H](Cc1c[nH]c2ccccc12)C(=O)N[C@@H](CCCNC(N)=O)C(=O)N(C)c1ccccc1 [Compound 11-15] (ClAc-E(OMe)[Pip]W[Cit]-X4)
0.15

Now for another entry.
What value of Ki has been reported for the following compound? COC(=O)CC[C@H](NC(=O)CCl)C(=O)N1CCCC[C@H]1C(=O)N[C@@H](Cc1c[nH]c2ccccc12)C(=O)N[C@@H](CCCNC(N)=O)C(=O)NCc1ccc(C)cc1 [Compound 11-4] (ClAc-E(OMe)[Pip]W[Cit]-{NH(4-Me-benzyl)})
0.03
